Assay Text: Bioavailability in Sprague-Dawley rat at 5 mg/kg, po and 1 mg/kg, iv
Format: ADME, organism-based
Experimental Context: in vivo
Measurement Kind: bioavailability (%)

Examples from the recorded data:
CN(C(=O)C1(c2ccc(F)cc2)CCCC1)[C@@H]1CCc2c(CC(=O)O)c3cccnc3n2C1 | 38
CN(C(=O)C1(c2ccc(F)cc2)CC1)[C@@H]1CCc2c(CC(=O)O)c3cccnc3n2C1 | 63

1. CN([C@@H]1CCc2c(CC(=O)O)c3cccnc3n2C1)S(=O)(=O)c1ccc(F)cc1
2. C[C@@H](C(=O)N(C)[C@@H]1CCc2c(CC(=O)O)c3cccnc3n2C1)c1ccc(F)cc1
3. CN(C(=O)C1(c2ccc(F)cc2)CCC1)[C@@H]1CCc2c(CC(=O)O)c3cccnc3n2C1
I would appreciate it if you could sort these 3 compounds by bioavailability, starting from the smallest number. Dear reader, please state the labels in the requested order.
3, 1, 2

###

Study System: Prostaglandin D2 receptor 2 (Homo sapiens, UniProt Q9Y5Y4)
Sequence (Q9Y5Y4 whole entry): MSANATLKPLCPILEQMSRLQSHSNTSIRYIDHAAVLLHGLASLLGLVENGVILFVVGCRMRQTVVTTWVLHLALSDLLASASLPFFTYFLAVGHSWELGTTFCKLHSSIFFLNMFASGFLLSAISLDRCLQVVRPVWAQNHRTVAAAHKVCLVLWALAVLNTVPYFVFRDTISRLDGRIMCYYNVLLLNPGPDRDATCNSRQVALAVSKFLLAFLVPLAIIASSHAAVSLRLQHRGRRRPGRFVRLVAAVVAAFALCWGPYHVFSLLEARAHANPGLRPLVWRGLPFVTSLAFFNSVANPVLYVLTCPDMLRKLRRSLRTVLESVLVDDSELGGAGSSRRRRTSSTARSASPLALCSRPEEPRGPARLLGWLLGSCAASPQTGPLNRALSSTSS
Assay Text: Antagonist activity at human CRTH2 expressed in HEK293 cells assessed as inhibition of forskolin-induced increase intracellular [125I]cAMP level by scintillation proximity assay
Measurement Kind: IC50 (nM)

Examples from the recorded data:
C[C@@H](C(=O)N(C)[C@@H]1CCc2c(CC(=O)O)c3cccnc3n2C1)c1ccc(F)cc1 | 5.7
CN([C@@H]1CCc2c(CC(=O)O)c3cccnc3n2C1)S(=O)(=O)c1ccc(F)cc1 | 3.4

A. CN(C(=O)C1(c2ccc(F)cc2)CC1(C)C)[C@@H]1CCc2c(CC(=O)O)c3cccnc3n2C1 (some centres undefined)
B. CN(C(=O)C1(c2ccc(F)cc2)CC1)[C@@H]1CCc2c(CC(=O)O)c3cccnc3n2C1
Two entries are listed, A and B . Which one carries the higher IC50? Answer by quoting the chosen item's label.
B

###

Listed here are compounds together with their documented pKi.
Study System: Prostaglandin D2 receptor (Homo sapiens)
Sequence (Q13258 whole entry): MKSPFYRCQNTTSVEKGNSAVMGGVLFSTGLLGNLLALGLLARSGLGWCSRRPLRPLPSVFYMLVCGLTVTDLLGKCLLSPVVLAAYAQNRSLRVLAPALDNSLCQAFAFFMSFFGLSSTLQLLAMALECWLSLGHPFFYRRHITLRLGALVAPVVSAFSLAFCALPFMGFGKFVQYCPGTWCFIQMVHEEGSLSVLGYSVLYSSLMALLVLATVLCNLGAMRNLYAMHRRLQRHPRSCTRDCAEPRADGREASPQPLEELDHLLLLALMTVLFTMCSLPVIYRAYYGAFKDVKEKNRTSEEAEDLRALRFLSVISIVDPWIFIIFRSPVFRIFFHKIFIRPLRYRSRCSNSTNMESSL
Assay Text: Displacement of radioligand from prostanoid DP receptor expressed in HEK293 cells by competitive binding assay
Format: cell-based
pKi: −log10 of the molar value.

Examples from the recorded data:
CN([C@@H]1CCc2c(CC(=O)O)c3cccnc3n2C1)S(=O)(=O)c1ccc(F)cc1 | < 4.33
C[C@@H](C(=O)N(C)[C@@H]1CCc2c(CC(=O)O)c3cccnc3n2C1)c1ccc(F)cc1 | < 4.42
CN([C@@H]1CCc2c(CC(=O)O)c3ccc(Cl)nc3n2C1)S(=O)(=O)c1ccc(F)cc1 | < 4.74
CN(C(=O)C1(c2ccc(F)cc2)CCOCC1)[C@@H]1CCc2c(CC(=O)O)c3cccnc3n2C1 | < 5.40
CN([C@@H]1CCc2c(CC(=O)O)c3ncccc3n2C1)S(=O)(=O)c1ccc(F)cc1 | < 5.89
CN(C(=O)C(C)(C)c1ccc(F)cc1)[C@@H]1CCc2c(CC(=O)O)c3cccnc3n2C1 | < 5.00
C[C@H](C(=O)N(C)[C@@H]1CCc2c(CC(=O)O)c3cccnc3n2C1)c1ccc(F)cc1 | < 4.92
CN([C@@H]1CCc2c(CC(=O)O)c3ccncc3n2C1)S(=O)(=O)c1ccc(F)cc1 | < 4.92
CN(C(=O)C1(c2ccc(F)cc2)CCCC1)[C@@H]1CCc2c(CC(=O)O)c3cccnc3n2C1 | < 5.40

Please examine the following record next.
Need pKi of `CN([C@@H]1CCc2c(CC(=O)O)c3ccc(-c4ccc(F)cc4)nc3n2C1)S(=O)(=O)c1ccc(F)cc1` , thanks.
< 5.42
